meta.source: ChEMBL document CHEMBL4373746

Protocol Description: Fraction unbound in Wistar Han rat heart at 2 uM incubated for 6 hrs by equilibrium dialysis method
Recorded Metric: fraction unbound at 6 h, 2 µM

Previously resolved entries follow.
{"Compound": "Nc1noc2ccc(-c3cc(Cl)ccc3Oc3cc(F)c(S(=O)(=O)Nc4cscn4)cc3F)cc12", "fraction unbound at 6 h, 2 µM": 0.000968}
{"Compound": "O=C(NC(c1ccccc1)c1ccccc1)C1CC1", "fraction unbound at 6 h, 2 µM": 0.1}
{"Compound": "CC(C)(CC1Cc2ccccc2C1)NC[C@@H](O)COc1cc(C2CC3CC2C2C(C(=O)O)C32)ccc1C#N (some centres undefined)", "fraction unbound at 6 h, 2 µM": 0.00108}
{"Compound": "Cc1ccc(NC(=O)N2CCN(Cc3sc4ccccc4c3C)CC2)nc1", "fraction unbound at 6 h, 2 µM": 0.00576}
{"Compound": "Cn1ncc(-c2ccc(C(=O)N(c3ncccc3Cl)[C@@H]3CCCNC3)cc2)c1C(=O)O", "fraction unbound at 6 h, 2 µM": 1}
{"Compound": "O=C(c1cccc(N2CCNCC2)n1)N1CCC(c2ccccc2F)CC1", "fraction unbound at 6 h, 2 µM": 0.057}

a. CO[C@@H]1C[C@H](C(=O)Nc2ccc(-n3cc(Cl)ccc3=O)cc2F)N(C(=O)Nc2ccc(Cl)cc2)C1
b. CCCC(Oc1ccc(-n2cc3ccccc3n2)cc1)c1ccc(C(=O)NCCC(=O)O)cc1 (centres undefined)
Prompt line: fraction unbound at 6 h, 2 µM comparison. Which is larger, a or b ? Identify your selection by its label.
Response line: a

* * *

Protocol Description: Fraction unbound in Wistar Han rat white adipose tissue at 2 uM incubated for 6 hrs by equilibrium dialysis method
Recorded Metric: fraction unbound at 6 h, 2 µM

Previously resolved entries follow.
{"Structure": "CC(=O)NS(=O)(=O)c1ccc(Oc2ccc(F)c(Cl)c2)c(C(F)(F)F)c1", "Recorded Value": 0.229}
{"Structure": "Cc1nc([C@@H]2CCOC2)c2c(N3CCc4c(c(C5CC5)nn4C)C3)ncnn12", "Recorded Value": 0.101}

P. CO[C@@H]1C[C@H](C(=O)Nc2ccc(-n3cc(Cl)ccc3=O)cc2F)N(C(=O)Nc2ccc(Cl)cc2)C1
Q. N#Cc1ccc(N2N=C(N3CCC(C(=O)N4CCC(O)CC4)CC3)C[C@H]2C2CCCC2)cc1Cl
R. COc1ccc(-c2cc3c(S(=O)(=O)O)c[nH]c3cc2Cl)cc1
Prompt line: Sort low-to-high on fraction unbound at 6 h, 2 µM, please. # respond with the labels, arranged in the requested order
Response line: Q, P, R
(Q: 0.109, P: 0.177, R: 0.347)

* * *

Protocol Description: Drug concentration in total skeletal muscle in Wistar Han rat at 1 to 2 mg/kg, iv infused for 10 to 20 hrs by LC-MS/MS analysis
Conditions Used: in vivo
Recorded Metric: Ct (ng/mL)

Previously resolved entries follow.
{"Molecule": "COc1ccc(Cc2cc([C@@H]3OC4(COC4)[C@@H](O)[C@H](O)[C@H]3O)ccc2C)cc1", "Ct / ng/mL": 110}
{"Molecule": "COc1cc(/C=C2\\CCCN([C@@H](C)c3ccc(F)cc3)C2=O)ccc1-n1cnc(C)c1", "Ct / ng/mL": 180}
{"Molecule": "CCCn1cnc(C[C@H](CCCN)C(=O)O)c1 [UK-396,082]", "Ct / ng/mL": 160}
{"Molecule": "COc1cc2nc(N3CCN(C(=O)c4ccco4)CC3)nc(N)c2cc1OC [PRAZOSIN]", "Ct / ng/mL": 100}
{"Molecule": "CC(=O)NS(=O)(=O)c1ccc(Oc2ccc(F)c(Cl)c2)c(C(F)(F)F)c1", "Ct / ng/mL": 24}
{"Molecule": "COc1cc2c(OC[C@H]3NC(=O)[C@@H]4C[C@]34C)nccc2cc1C(N)=O", "Ct / ng/mL": 67}

P. O=C(O)[C@@H]1CCN(C(=O)n2cnc(-c3ccc(-c4cnc(N5CCOCC5)nc4)cc3)n2)[C@@H](c2ccccc2)C1
Q. COCCCN1C[C@H](C)N(C(=O)N2Cc3c(NC(=O)c4ccccn4)n[nH]c3C2(C)C)C[C@H]1C
R. Cn1nc(C(=O)NCCN2CCOCC2)cc1-c1cc2ccccc2[nH]1
Prompt line: Sort low-to-high on Ct, please. # respond with the labels, arranged in the requested order
Response line: P, R, Q

1. CN(C)C(=O)c1cc(CC(=O)O)ccc1NC(=O)c1ccccc1-c1ccc(C(F)(F)F)cc1
2. O=C(O)c1c[nH]c2cc(Cl)c(-c3ccc(CC(=O)N4CCOCC4)cc3)cc12
Prompt line: Ct comparison. Which is larger, 1 or 2 ? Identify your selection by its label.
Response line: 1
(1: 21 ng/mL, 2: 0.89 ng/mL)

a. CCCC(Oc1ccc(-n2cc3ccccc3n2)cc1)c1ccc(C(=O)NCCC(=O)O)cc1 (centres undefined)
b. Cn1ncc(-c2ccc(C(=O)N(c3ncccc3Cl)[C@@H]3CCCNC3)cc2)c1C(=O)O
c. CN1CC[C@H](c2c(O)cc(O)c3c(=O)cc(-c4ccccc4Cl)oc23)[C@H](O)C1 [ALVOCIDIB]
d. Nc1noc2ccc(-c3cc(Cl)ccc3Oc3cc(F)c(S(=O)(=O)Nc4cscn4)cc3F)cc12
Prompt line: List from greatest to least Ct. # respond with the labels, arranged in the requested order
Response line: c, d, a, b
